Test system: HeLa Kyoto;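 note: synchronized HeLa Kyoto cells, proteins quantified by TMT10plex mass spectrometry, three biological replicates, mitosis taken 0.5 h after nocodazole release, G1/S directly after double thymidine block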
experiment: thermal stability score vs G1/S (z-score of summed log2 fold changes over temperatures); higher = more thermally stable than in G1/S
condition-notes: cell cycle stage: mitosis
Exercise: state measured thermal stability score for each of the substances provided.
One number for each entry.

Q) GET /values?readout=thermal stability score&item= ARHGAP4
A) 0.251

Q) Continue with MNIMDFNVKKLAADAGTFLSRAVQFTEEKLGQAEKTELDAHLENLLSKAECTKIWTEKIMKQTEVLLQPNPNARIEEFVYEKLDRKAPSRINNPELLGQYMIDAGTEFGPGTAYGNALIKCGETQKRIGTADRELIQTSALNFLTPLRNFIEGDYKTIAKERKLLQNKRLDLDAAKTRLKKAKAAETRNSSEQELRITQSEFDRQAEITRLLLEGISSTHAHHLRCLNDFVEAQMTYYAQCYQYMLDLQKQLGSFPSNYLSNNNQTSVTPVPSVLPNAIGSSAMASTSGLVITSPSNLSDLKECSGSRKARVLYDYDAANSTELSLLADEVITVFSVVGMDSDWLMGERGNQKGKVPITYLELLN [SH3GLB1]
A) 2.44

Q) Continue with MEAVLTEELDEEEQLLRRHRKEKKELQAKIQGMKNAVPKNDKKRRKQLTEDVAKLEKEMEQKHREELEQLKLTTKENKIDSVAVNISNLVLENQPPRISKAQKRREKKAALEKEREERIAEAEIENLTGARHMESEKLAQILAARQLEIKQIPSDGHCMYKAIEDQLKEKDCALTVVALRSQTAEYMQSHVEDFLPFLTNPNTGDMYTPEEFQKYCEDIVNTAAWGGQLELRALSHILQTPIEIIQADSPPIIVGEEYSKKPLILVYMRHAYGLGEHYNSVTRLVNIVTENCS [OTUD6B]
A) 0.425

Q) Continue with MLLLAAAFLVAFVLLLYMVSPLISPKPLALPGAHVVVTGGSSGIGKCIAIECYKQGAFITLVARNEDKLLQAKKEIEMHSINDKQVVLCISVDVSQDYNQVENVIKQAQEKLGPVDMLVNCAGMAVSGKFEDLEVSTFERLMSINYLGSVYPSRAVITTMKERRVGRIVFVSSQAGQLGLFGFTAYSASKFAIRGLAEALQMEVKPYNVYITVAYPPDTDTPGFAEENRTKPLETRLISETTSVCKPEQVAKQIVKDAIQGNFNSSLGSDGYMLSALTCGMAPVTSITEGLQQVVTMGLFRTIALFYLGSFDSIVRRCMMQREKSENADKTA [KDSR]
A) -3.38

Q) Continue with MAAVLKPVLLGLRDAPVHGSPTGPGAWTASKLGGIPDALPTVAAPRPVCQRCGQPLALVVQVYCPLEGSPFHRLLHVFACACPGCSTGGARSWKVFRSQCLQVPEREAQDAQKQGNSLAAEDWCEGADDWGSDTEEGPSPQFTLDFGNDASSAKDVDWTARLQDLRLQDAVLGAAHPVPPGLPLFLPYYICVADEDDYRDFVNLDHAHSLLRDYQQREGIAMDQLLSQSLPNDGDEKYEKTIIKSGDQTFYKFMKRIAACQEQILRYSWSGEPLFLTCPTSEVTELPACSQCGGQRIFEFQLMPALVSMLKSANLGLSVEFGTILVYTCEKSCWPPNHQTPMEEFCIIQEDPDELLFK [PDCD2L]
A) 0.849

Continuing:
Q) GET /values?readout=thermal stability score&item= MLFLALGSPWAVELPLCGRRTALCAAAALRGPRASVSRASSSSGPSGPVAGWSTGPSGAARLLRRPGRAQIPVYWEGYVRFLNTPSDKSEDGRLIYTGNMARAVFGVKCFSYSTSLIGLTFLPYIFTQNNAISESVPLPIQIIFYGIMGSFTVITPVLLHFITKGYVIRLYHEATTDTYKAITYNAMLAETSTVFHQNDVKIPDAKHVFTTFYAKTKSLLVNPVLFPNREDYIHLMGYDKEEFILYMEETSEEKRHKDDK [TMEM70]
A) -1.65
